Each record here notes measured inhibition.
System: transactivating tegument protein VP16 (Human herpesvirus 1)
experimentDescription: VP16 transactivation reporter inhibitors, counter-screen for SRC2 inhibitor project, cell-based, luminescence, single concentration (AID 652007)
conditions: cell-based VP16 transactivation luciferase reporter, at 8.9 µM, active compounds read high
Activity calls are given as the source filed them. Cut-off read from the data, not from the text of the source: active = inhibition above about 36%; inactive = the rest.

{"compound": "COc1cccc(N2CCN(c3c(C#N)c(C(F)(F)F)nn3C)CC2)c1", "recordedEndpoint": "inhibition", "valueObserved": "-6.45% (inactive)"}

Observed inhibition on transactivating tegument protein VP16 (Human herpesvirus 1) for `COC1=CC(=O)c2nc(Cl)ccc2C1=O` , please.
24.5% (inactive)

Observed inhibition on transactivating tegument protein VP16 (Human herpesvirus 1) for `CC(C)(C)NCC(=Cc1ccccc1)C(=O)c1ccccc1` , please.
72.5% (active)

Observed inhibition on transactivating tegument protein VP16 (Human herpesvirus 1) for `COc1cc(/C=C/C(=O)c2ccc3c(c2)OCCO3)cc(Br)c1OCC(=O)N(C)C` , please.
30.9% (inactive)

Observed inhibition on transactivating tegument protein VP16 (Human herpesvirus 1) for `COc1cccc(-c2ncn(CCc3ccccc3OC)c2CC(C)C)c1` , please.
-2.53% (inactive)

Observed inhibition on transactivating tegument protein VP16 (Human herpesvirus 1) for `Cc1ccc(-c2nc(CSCC(=O)NC3CCN(Cc4ccccc4)CC3)c(C)o2)cc1` , please.
11% (inactive)

Observed inhibition on transactivating tegument protein VP16 (Human herpesvirus 1) for `COC(=O)c1ccc(-c2nc3cc(N)ccc3o2)cc1` , please.
-20.4% (inactive)

Observed inhibition on transactivating tegument protein VP16 (Human herpesvirus 1) for `CN1OC[C@@H]2CN(S(=O)(=O)c3cccc(C(F)(F)F)c3)[C@H](c3ccc(-c4cc5ccccc5o4)cc3)C[C@@H]21` , please.
3.18% (inactive)

Observed inhibition on transactivating tegument protein VP16 (Human herpesvirus 1) for `Cc1ccc(/C=C2\SC(=S)N(CCCC(=O)Nc3cc(C)on3)C2=O)cc1` , please.
31.6% (inactive)

Observed inhibition on transactivating tegument protein VP16 (Human herpesvirus 1) for `CN(C)c1ccnc2sc(C(N)=O)c(N)c12` , please.
-0.64% (inactive)

Observed inhibition on transactivating tegument protein VP16 (Human herpesvirus 1) for Cc1ccc(C2=[N+]([O-])C3(CCCCC3=O)N(O)C2(C)C)cc1 (stereo unspecified) , please.
-5.08% (inactive)

###

systemTested: Nuclear receptor coactivator 1 (Homo sapiens)
experimentDescription: SRC1 coactivator transcriptional activity inhibitors, confirmation, cell-based, luminescence, quadruplicate (AID 588820);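 note: 0% = DMSO wells and 100% = gossypol 36 µM treated wells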
conditions: HEK293 GAL4-SRC1 luciferase reporter, at 3.6 µM
Calls of active or inactive are those of the source.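 The calls were made as follows: active = mean inhibition above 46.68%, the untreated control wells mean plus 3 SD; inactive = the rest.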
Please answer using one outcome listed in Yes for active, No for inactive

{"compound": "Cn1c(=O)c2c(nc(Oc3ccc4ccccc4c3)n2C)n(C)c1=O", "labelValue": "Yes"}
{"compound": "CCN(C(=O)c1ccc(S(=O)(=O)N2CCC(C)CC2)cc1)C1CCS(=O)(=O)C1 (stereo not given)", "labelValue": "No"}
{"compound": "CCOc1ccccc1N1CCN(CC(=O)NC(C)c2ccccc2)CC1 (stereo not given)", "labelValue": "No"}
{"compound": "CC(C)C[C@H](NC(=O)c1nc[nH]c1C(=O)N1CCN(C(=O)OC(C)(C)C)CC1)C(=O)OC(C)(C)C", "labelValue": "No"}

Now, please, on to the next compound.
Recorded test outcome, item `O=C(Nc1ccncc1)c1ccc(Cl)c(S(=O)(=O)N2CCc3ccccc32)c1`
No

From: PubChem BioAssay
